# Test system: EKVX NSCLC
# ASSAY_OVERVIEW: NCI tumour cell line growth inhibition, 48 h
Where a SMILES comes first, the peptide text is derived from it. [ ]: non-standard residue; d: D form. The star is where a group is joined. X28 = COC1=CC(=O)N(C(=O)[C@@H](O*)C(C)C)[C@H]1Cc1ccccc1; NMeV = CN[C@H](C(=O)O)C(C)C; Hexanoyl = CCCCCC(=O)*

{"MOLECULE": "CCOC(=O)N/N=C(/OCC)c1ccccc1", "TGI": "> 100 µM"}
{"MOLECULE": "COc1ccc(/C=C2\\NC(=S)N(CN3CCCCC3)C2=O)cc1", "TGI": "> 100 µM"}
{"MOLECULE": "O=C(/C=C(\\O)c1ccccc1)C(=O)NNc1ccc([N+](=O)[O-])cc1[N+](=O)[O-]", "TGI": "56.3 µM"}
{"MOLECULE": "CCOC(=O)N(Cc1cccs1)c1cc(OC)c(OC)c(OC)c1", "TGI": "> 100 µM"}
{"MOLECULE": "CCCCCC(=O)N[C@H](C(=O)N[C@H](C(=O)N(C)[C@H](C(=O)N1CCC[C@H]1C(=O)N1CCC[C@H]1C(=O)O[C@H](C(=O)N1C(=O)C=C(OC)[C@@H]1Cc1ccccc1)C(C)C)C(C)C)C(C)C)C(C)C (Hexanoyl-VV[NMeV]PP-X28)", "TGI": "> 100 µM"}
{"MOLECULE": "COc1cccc(-n2ncc3c(N/N=C/c4ccc(C(=O)NCCN(C)C)cc4)ncnc32)c1", "TGI": "8.57 µM"}
{"MOLECULE": "CC1=C(C(=O)O)N2C(=O)[C@@H](NC(=O)C(c3ccc(O)cc3)N3CSC(=S)N(C(C)C)C3)C2SC1 (some centres not stated)", "TGI": "> 100 µM"}
{"MOLECULE": "CC1OC(O[C@@H]2OC=C(C=O)[C@@]3(O)CC[C@H](C)[C@@H]23)C(O)C(O)C1O (some centres not stated)", "TGI": "> 100 µM"}
{"MOLECULE": "CCOC(=O)COc1ccccc1/C=C1\\CCC(CN(C)C)C1=O (configuration not stated)", "TGI": "34.7 µM"}
{"MOLECULE": "C#CCOCn1cnc2c(Cl)ncnc21", "TGI": "> 100 µM"}
{"MOLECULE": "CCNCCNc1c2ccccc2nc2ccccc12", "TGI": "21.9 µM"}
{"MOLECULE": "Cc1[nH]ccc2c1[nH]c1cc(=O)ccc12", "TGI": "> 100 µM"}
{"MOLECULE": "O=C1C(Cl)=C(OCCCCl)C(=O)c2c(O)ccc(O)c21", "TGI": "40.9 µM"}
{"MOLECULE": "CCC1NC(=O)C1NC(=O)OC (configuration not stated)", "TGI": "> 100 µM"}
{"MOLECULE": "COc1ccc(/C(C#N)=C/c2ccccc2OC)cc1", "TGI": "> 100 µM"}
{"MOLECULE": "O=C(/C=C/c1ccccc1)/C=N/N1C(=S)N(c2ccccc2)C(=Nc2ccccc2)C1=Nc1ccccc1", "TGI": "> 100 µM"}
{"MOLECULE": "O=S(=O)(O)c1ccc(O)c2ncc(Cl)cc12", "TGI": "> 100 µM"}
{"MOLECULE": "CCC1C(C#N)=C(N)OC2=C1C(=O)CC(C)(C)C2 (configuration not stated)", "TGI": "> 100 µM"}
{"MOLECULE": "C/C(=N\\NS(=O)(=O)c1ccccc1)c1ccc(Cl)c(Cl)c1", "TGI": "> 100 µM"}
{"MOLECULE": "COC(C(=O)[O][Ge]([CH3])([CH3])[CH3])c1ccccc1 (configuration not stated)", "TGI": "> 100 µM"}
{"MOLECULE": "CC12CCC(CC1=O)C2(C)CCC(N)=O (configuration not stated)", "TGI": "> 100 µM"}
{"MOLECULE": "Oc1cccc2ccc(N/N=C/c3cc(CN4CCCCC4)c(O)c4ncccc34)nc12", "TGI": "14.7 µM"}
